System: Rattus norvegicus
Experiment: Antiinflammatory activity in po dosed rat assessed as inhibition of carrageenan-induced paw edema compound administered 1 hr prior challenge measured 3 hrs post challenge
Assay type: functional
RECORDED_ENDPOINT: ED50 (mg/kg)
Write it as a number; the unit mg/kg goes unstated.

Look up ED50 of C/C(=N\OCC(=O)O)c1ccc(Cl)cc1Cl and report it.
120

Supply measured ED50 of C/C(=N\OCCCCCC(=O)O)c1ccc(Cl)cc1 in your reply.
92

Look up and state reported ED50 for C/C(=N\OCCO)c1ccc(Cl)s1
60

Entry COC(=O)CO/N=C(\C)c1ccc(Br)cc1 needs its ED50 filled in; supply it.
14

Return reported ED50. Input compound: O=C(O)CO/N=C/c1ccc(Cl)cc1
45

Answer with the recorded ED50 for the compound listed here: CC(C)Cc1ccc(CC(=O)O)cc1
98

Find the measured ED50 of CCCOC(=O)CO/N=C(\C)c1ccc(Cl)cc1 and report it.
14

Tell us which ED50 value is on record for CC(C)Cc1ccc(C(C)C(=O)O)cc1 (centres undefined)
25

Find the measured ED50 of C/C(=N\OCC(=O)OCCN(C)C)c1ccc(Cl)c(Cl)c1 and report it.
80

Supply reported ED50 belonging to this compound: O=C(O)CN/N=C/c1ccc(Cl)cc1
25

Retrieve ED50 measured for C/C(=N\OCC(=O)O)c1ccc(Cl)c(Cl)c1 and print it.
65

Annotate the compound C/C(=N\OCC(=O)OC(C)C)c1ccc(Cl)cc1 with its measured ED50.
50

Provide only the value of recorded ED50 for COC(=O)CO/N=C(\C)c1ccc(Cl)cc1
24

Fill in reported ED50 for this entry: C/C(=N\OCCC(=O)O)c1ccc(Cl)cc1
80

Please list ED50 recorded for the compound C/C(=N\OCC(=O)OCC(C)(C)N(C)C)c1ccc(Cl)cc1.Cl
27

# return recorded ED50 for input C/C(=N\OCC(N)=O)c1ccc(Cl)cc1
24

# return recorded ED50 for input C/C(=N\OCCOC(=O)C(C)(C)C)c1ccc(Cl)cc1
38

Recall and state the measured ED50 for C/C(=N\NCC(=O)O)c1ccc(Cl)cc1 .
22

Quick one: give measured ED50 for COC(=O)OCCO/N=C(\C)c1ccc(Cl)cc1
33

The reported numbers originate from ChEMBL document CHEMBL3272316.
